Test: Toxicity liver stage against HepG2, at 10uM
Type: cell-based
Set-up: test concentration 10 uM, cell line HepG2-A16-CD81EGFP
Details: human, HepG2-A16-CD81EGFP cells; read-out: INHIBITION
Mark label 1 only when cytotoxicity at 10 µM stays strictly below -30%. Values equal to the cut-off are label 0.

compound	class name
COCCN1CCOCC12CCN(c1nccs1)CC2	label 1
CN1CCN(Cc2cccc(C#N)c2)Cc2cccnc21	label 1
CN(CCO)CC1COCCN1C(=O)CCC1CCCC1 (configuration not stated)	label 0
N#CCCN(C(=O)CN1CCCC1Cc1ccccc1)c1ccccc1 (configuration not stated)	label 0
c1csc(CN2Cc3nccn3CC(Cn3cncn3)C2)n1 (configuration not stated)	label 0
Cc1nn(C)c(C)c1CN1CCNCC1	label 0
NC(=O)CN1CCC(c2cncc(-c3cccc(Cl)c3)n2)CC1	label 0
Cc1csc(CCNC(=O)NC(C)Cn2cccn2)n1 (configuration not stated)	label 0
CC(=O)N1N=C(c2cccs2)OC1C(=O)NCc1ccc(C)o1 (configuration not stated)	label 0
CCc1nnc(CN(CC)C(=O)C2CC(=O)N(Cc3cccnc3)C2)o1 (configuration not stated)	label 0
c1cncc(N2CCCC3(CCN(CCN4CCCC4)CC3)C2)c1	label 0

----------
Test: Toxicity liver stage against HepG2, at 10uM
Assay type: cell-based
Design: test concentration 10 uM, cell line HepG2-A16-CD81EGFP
Details: human, HepG2-A16-CD81EGFP cells; read-out: INHIBITION
quantity name: cytotoxicity at 10 µM (%)

compound	experimental value
CCc1nnc2n1CCN(Cc1csc(-c3ccsc3)n1)C2	-17.5
CCCn1c(N2CCCCC2)nc2c(C)nn(C)c2c1=O	11.8
OCCCN(CCn1cncn1)c1ccccc1	-4.04
Cn1cncc1C(=O)N1C[C@@H]2CCN(c3cnccn3)C[C@@H]2C1	-96.6
COc1ccccc1NCC(=O)NCc1scnc1C	5.48
CC(C)CCc1n[nH]c(C(=O)O)c1Cl	-5.47
COCCCN1CCN(C(=O)C(c2cccc(F)c2)N(C)C)CC1 (stereo not drawn)	-13.1
Cc1nc(CN2CCCC2Cn2cncn2)no1 (stereo not drawn)	-7.01
Cc1nc(N2CCCC(OCc3ccccn3)C2)c2c(C)noc2n1 (stereo not drawn)	0.622
O=C(CN1CCSCC1c1ccccc1)N1CCCC1 (stereo not drawn)	7.34
CC(C)c1noc(C(C)N2CCN(Cc3ccsc3)CC2)n1 (stereo not drawn)	-6.85
CNC(=O)N1CCC2(CC1)CN(C)c1ccc(F)cc12	-4.78
COc1ccc(-n2nc(C(C)C)nc2COC(C)C)cc1	1.56

----------
Test: Toxicity liver stage against HepG2, at 10uM
Type: cell-based
Set-up: test concentration 10 uM, cell line HepG2-A16-CD81EGFP
Settings: human, HepG2-A16-CD81EGFP cells; read-out: INHIBITION
Entries annotated with measured cytotoxicity at 10 µM
quantity name: cytotoxicity at 10 µM (%)

compound	experimental value
CC(C)N1CCC(NC(=O)c2cn(-c3ccc(F)cc3)nn2)C1 (centres undefined)	-5.05
O=S(=O)(NCc1cccnc1OC1CCCC1)N1CCCCC1	-3.82
CC(C)NC(=O)c1ccc2c(c1)nc1n2CCN(Cc2ccco2)C1	8.16
Cc1cccc(CNC(C)c2ccc(OCC(=O)NC3CC3)cc2)c1 (centres undefined)	-10
COCCC1CCN(CC(C)n2cnc3ccccc32)CC1 (centres undefined)	6.67
COCCC(C)NC(=O)N1CCC(n2ccc(C(F)(F)F)n2)CC1 (centres undefined)	-3.9
COc1cc(OC)c2c(=O)oc(CC(O)CC(C)=O)cc2c1 (centres undefined)	5.73
COc1ccnc(CNc2cc(C3CC3)ncn2)c1	-7.64
CCC(CO)N(CC=C(C)C)Cc1ccsc1 (centres undefined)	6.07
COC(=O)c1ccc(OC)c(Cn2cc(N)cn2)c1	-7.8
Cc1nc(CN2CCCC(NCC(=O)Nc3cccnc3)C2)no1 (centres undefined)	0.0757
Cc1nc(C2CCN(Cc3ncc[nH]3)CC2)no1	-28
CCCNc1ncc(C2CC(=O)NCc3nc4ccccn4c32)cn1 (centres undefined)	-3.69
CC(C)n1cnnc1CN1C(=O)CCc2ccccc21	0.0849
COc1ccc(CN2CCN(C3CCc4ccccc4C3)CC2)cc1O (centres undefined)	-6.55
CSc1ncc(C(=O)N2C[C@@H]3CC[C@H]2CN(S(=O)(=O)N(C)C)C3)cn1	0.0773
Cn1ccc(CN2CCC(c3ccccc3)CC2)cc1=O	-6.46
O=S(=O)(NCc1cc2n(n1)CCNC2)c1ccc(OC(F)(F)F)cc1	11.5
COCCN1C(=O)CC(N2CCN(c3ccc(OC)cc3)CC2)C1=O (centres undefined)	-12.6
O=C(c1scc2c1OCCO2)N1CCN(Cc2cccc(F)c2)CC1	0.993
CNC(=O)N1CCC2(CC1)CN(C)Cc1cc(F)ccc12	4.16
COc1ccccc1C(O)CNC(=O)Nc1cccnc1OC (centres undefined)	-14.7
Cc1ccc(Cc2cnc(NC(=O)C3CNC(=O)N3)s2)cc1F (centres undefined)	1.11
Cc1noc(CCCC(=O)N(CCC(=O)O)Cc2ccc(F)c(F)c2)n1	-11.3
CCOCc1ccccc1NC(=O)NCC(C)(O)c1cccs1 (centres undefined)	-0.966
COc1ccc(C(=O)N(CCC#N)Cc2ccccn2)cc1	13.1
O=S(=O)(NCC1(O)CCOc2ccccc21)c1ccccc1F (centres undefined)	7.22
O=C(CC1CC1)N1CCC2(CCCN(CCOc3ccccc3)C2)C1 (centres undefined)	-0.861
CC(C(=O)N1CCN(c2ccccc2)CC1)n1cc(Br)cn1 (centres undefined)	7.47
O=C(NCCn1cccc1)C1CCCN(C2CCCC2)C1 (centres undefined)	0.301
CCN(CC)CCn1cnc(-c2ccccc2)c1-c1ncc[nH]1	4.03
CC(C)c1noc(OCC(=O)N(C)C(C)C)n1	-12.6
CC(C)c1nc(CN2CCOC(Cn3cccn3)C2)no1 (centres undefined)	-9.43
CCN1CCN(CCNC(=O)c2sc(C)nc2C)CC1	0.927
Cc1ccc(CNc2n[nH]c(C)n2)cc1	-2.25
O=C(O)C1CCCN(c2nc3c(-c4ccccc4)csc3c(=O)[nH]2)C1 (centres undefined)	-10.1
O[C@@H]1CN(Cc2ccncc2)C[C@H]1Oc1ccccc1	-1.44
CCc1nnc(CN2CCCC2Cn2cc(C)cn2)o1 (centres undefined)	-6.64
CSCCC(C)NC(=O)N(C)Cc1cc(Cl)cn1C (centres undefined)	3.04
CC1CCCCN1C(=O)Cn1cnc(C#N)n1 (centres undefined)	-18.8
Cc1cccc(NC(=O)[C@@H]2CCCN2Cc2ccccc2C#N)n1	-4.11
CS(=O)(=O)N1C[C@H]2CCCN(Cc3ccsc3)[C@H]2C1	6.43
Cn1cc(CN(C(=O)c2ccc(O)c(Cl)c2)C2CC2)cn1	5.17
CC(C)Cn1ccnc1CNC(=O)N1CCCC1CN1CCOCC1 (centres undefined)	-6.29
COc1ccc2oc(C(C)NC(=O)NCC(C)(C)C(N)=O)c(C)c2c1 (centres undefined)	-9.51
NC(=O)CN1CCCC(Cc2ccc(N3CCOCC3)nn2)C1 (centres undefined)	8.21
Cc1cnc(N2CCCC3(CCCN3CC(=O)N(C)C)C2)nc1 (centres undefined)	-0.634
COc1ccc(C2CCN(Cc3cscn3)CC2)cc1	-0.243
CSCCc1nc(C(C)C)nn1-c1ccncc1C	1.63
